Value source: patent US11999699B2

STUDY TARGET: human NaV1.8 (Homo sapiens)
Construct: The following NaV1.8 recombinant cell line was used for recordings: HEK-NaV1.8 (NM 006514.1)
Sequence (Q9Y5Y9 whole entry): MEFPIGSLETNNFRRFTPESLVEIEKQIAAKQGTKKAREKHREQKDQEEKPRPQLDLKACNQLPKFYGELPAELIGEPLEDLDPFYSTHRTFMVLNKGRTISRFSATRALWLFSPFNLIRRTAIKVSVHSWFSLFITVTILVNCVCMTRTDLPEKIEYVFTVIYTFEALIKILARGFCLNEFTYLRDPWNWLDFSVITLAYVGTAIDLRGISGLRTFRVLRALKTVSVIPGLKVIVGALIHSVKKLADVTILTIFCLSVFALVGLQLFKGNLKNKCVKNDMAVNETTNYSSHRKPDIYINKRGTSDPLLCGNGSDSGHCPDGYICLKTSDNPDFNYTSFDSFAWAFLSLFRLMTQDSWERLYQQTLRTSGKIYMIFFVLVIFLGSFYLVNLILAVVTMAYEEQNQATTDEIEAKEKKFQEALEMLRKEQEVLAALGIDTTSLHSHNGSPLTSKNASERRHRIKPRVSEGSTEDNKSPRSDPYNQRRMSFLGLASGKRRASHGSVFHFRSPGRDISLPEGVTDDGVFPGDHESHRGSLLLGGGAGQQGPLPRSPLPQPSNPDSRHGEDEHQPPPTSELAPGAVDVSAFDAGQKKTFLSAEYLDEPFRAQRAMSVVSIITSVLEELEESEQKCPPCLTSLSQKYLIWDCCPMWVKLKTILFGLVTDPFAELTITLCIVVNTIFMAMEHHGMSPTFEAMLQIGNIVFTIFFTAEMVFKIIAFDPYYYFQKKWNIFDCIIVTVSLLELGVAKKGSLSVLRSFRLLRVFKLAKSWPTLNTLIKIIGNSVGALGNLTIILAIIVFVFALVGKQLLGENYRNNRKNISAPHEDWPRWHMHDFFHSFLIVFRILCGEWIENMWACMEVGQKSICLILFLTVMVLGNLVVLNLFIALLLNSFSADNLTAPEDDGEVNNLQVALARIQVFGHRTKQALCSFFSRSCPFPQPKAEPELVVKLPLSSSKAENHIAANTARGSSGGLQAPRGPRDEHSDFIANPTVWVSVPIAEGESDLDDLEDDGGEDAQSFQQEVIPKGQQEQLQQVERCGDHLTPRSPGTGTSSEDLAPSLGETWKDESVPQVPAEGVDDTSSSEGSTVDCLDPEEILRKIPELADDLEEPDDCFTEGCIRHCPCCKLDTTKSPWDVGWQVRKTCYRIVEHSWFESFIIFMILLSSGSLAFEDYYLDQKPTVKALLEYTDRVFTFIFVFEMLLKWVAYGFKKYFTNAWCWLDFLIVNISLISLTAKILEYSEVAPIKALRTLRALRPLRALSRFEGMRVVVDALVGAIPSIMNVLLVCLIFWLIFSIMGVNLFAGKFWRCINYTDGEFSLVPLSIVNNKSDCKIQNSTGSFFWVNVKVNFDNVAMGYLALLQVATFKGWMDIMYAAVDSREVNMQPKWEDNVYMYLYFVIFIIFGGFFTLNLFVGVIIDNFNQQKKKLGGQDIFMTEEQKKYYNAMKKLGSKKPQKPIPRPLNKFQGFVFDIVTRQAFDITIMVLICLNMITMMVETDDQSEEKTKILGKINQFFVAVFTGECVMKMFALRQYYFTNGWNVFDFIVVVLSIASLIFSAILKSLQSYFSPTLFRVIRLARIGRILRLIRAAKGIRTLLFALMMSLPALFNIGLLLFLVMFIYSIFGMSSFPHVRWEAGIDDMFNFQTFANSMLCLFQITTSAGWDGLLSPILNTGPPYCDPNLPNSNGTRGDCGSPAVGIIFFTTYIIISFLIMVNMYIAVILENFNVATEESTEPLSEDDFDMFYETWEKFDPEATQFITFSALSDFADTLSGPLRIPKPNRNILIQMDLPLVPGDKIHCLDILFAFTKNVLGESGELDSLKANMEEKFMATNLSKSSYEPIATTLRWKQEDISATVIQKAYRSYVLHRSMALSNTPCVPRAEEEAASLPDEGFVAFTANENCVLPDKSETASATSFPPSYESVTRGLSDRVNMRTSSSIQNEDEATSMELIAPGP
Sequence (Q9NY72 23-215 partner): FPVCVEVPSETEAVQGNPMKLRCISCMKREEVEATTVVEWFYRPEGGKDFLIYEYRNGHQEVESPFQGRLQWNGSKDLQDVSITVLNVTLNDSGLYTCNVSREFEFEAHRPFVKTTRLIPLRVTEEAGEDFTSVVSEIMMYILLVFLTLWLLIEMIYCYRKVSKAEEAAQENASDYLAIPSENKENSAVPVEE
ASSAY REMARKS: Electrophysiology: automated whole-cell voltage-clamp (patch clamp, Qube384) recordings of sodium currents in HEK-NaV1.8 cells
CONDITION SET: potency data either taken from inactivated or resting state, read-out: Potency category (human NaV1.8 IC50)
REPORTED METRIC: IC50

| COMPOUND | IC50 |
| --- | --- |
| Cc1c(C(C)(F)F)nn([C@H](C)C2CC(F)(F)C2)c1C(=O)Nc1ccnc(S(C)(=O)=O)c1 [SC-222b] | 1 to 10 µM |

Incoming: Quote IC50 reported for NS(=O)(=O)c1cc(NC(=O)c2c(C(F)(F)F)c(C3CC3)nn2CC2CC(F)(F)C2)ccn1 [SC-282] please.
Outgoing: ≤ 0.1 µM

Incoming: Please report IC50 for the following compound: NC(=O)c1cc(NC(=O)c2c(C(F)(F)F)c(C3CC3)nn2CC2CC2(F)F)ccn1 (single isomer, unassigned) [SC-279a]
Outgoing: 0.1 to 1 µM
